pKd values by entry
TGT: T1, biotinylated NANPx6 (Plasmodium falciparum CSP repeat, …)
T1 construct: also called NANPx6 peptide; NANPx6 target antigen
TEST_DETAILS: BLI; Octet RED96; biotinylated FL-CSP or biotinylated NANPx6 on streptavidin biosensors, Fab in solution, kinetics buffer; global fit to 1:1 Langmuir model
SETUP_CONDITIONS: both partners purified
Quick note: pKd means taking -log10 of the concentration in moles per liter.

## Task Specify pKd for Fab 311 (Fab, V domains shown) VH: QVQLVESGGGVVPPGRSLRLSCATSGFTFSNYGMHWVRQAPGKGLEWVAIIWYDGSRNFYAASVEGRFTISRDNSKNTLYLQMNSLRVEDTAVYYCARAAYYDTSGYGDYWGQGTLVTVSS VL: QSVLTQPPSVSGAPGQTVTISCTGGSSNIGAGYDVHWYQQLPGTAPKLLIYGNINRPSGVPDRFSGSKSGTSASLAITGLQAEDEADYYCQSYDRRLSGSWVFGGGTKLTVL and stop.
## Result 8.15

## Task Quote pKd reported for Fab MGG4 (Fab, V domains shown, also called MGG4 Fab) VH: QVQLVESGGGVVQPGRSLRLSCAASGFRFSDYGMHWVRQAPGKGLEWVALIWYDGSNESYLDSVKGRFTISRDNSKNTLYLQMNNLRTEDTAVYYCAKLLVGITTDVFDVWGQGTVVTVSS VL: DIVMTQSPDSLAVSLGERATINCRSSQSVLSSSNNKNYLAWYQHKPRQPPKLLIYWASTRESGVPDRFSGSGSGTDFTLTISSLQAEDVAVYYCQQYYTASPFFGGGTKVEIK please.
## Result 7.29

## Task Annotate the binder Fab 663 (Fab, V domains shown) VH: EVQLLESGGGLEQPGGSLRLSCVVSGFTFSNYAFNWVRQAPGKGLEWVAIIYRSGSRMYHADSVKGRFTISRDDSKNTLFLQMNNLRAEDTAVYYCTTLLIYESDVGVDFWGQGTLVTVSS VL: DIVMTQSPLSLPVSPGEPASISCRSTQSLIFGEHNYLDWYLQKPGQSPQLLIYLASNRASGVPDRFSGSGSGTYFTLKISRVEAEDFGVYYCVQTVQVPYTFGQGTKLEIK with its measured pKd.
## Result 6.86

// data source = paper PMC7970865
